System: Hs-578T
Experiment: NCI tumour cell line growth inhibition, 48 h
Calls of active or inactive are those of the source. No stated cut-off is given here; in the data, active = GI50 up to about 1.1 µM and inactive = higher.
Your reply should match one of these outcome classes. YES = active, NO = inactive

[in] Returns: the outcome recorded for Nc1ncnc2c1ncn2[C@@H]1O[C@H](COP(=O)(O)OP(=O)(O)OC[C@H]2O[C@@H](OCCCO)[C@H](O)[C@@H]2O)[C@@H](O)[C@H]1O in this assay.
[out] NO

[in] Please let me know the test result on file for COc1cc(Br)c(CC2C3=C(CCN2C(=O)C2CCC2)CC(=O)CC3)cc1O (stereo not given) .
[out] NO

[in] Assay result, entry C/C(=N\NC(=S)N/N=C(\C)c1ccccn1)c1ccccn1 — outcome?
[out] NO

[in] I'd appreciate the recorded outcome for COc1cc(C2c3cc4c(cc3OC(NNS(=O)(=O)c3ccc(C)cc3)C2C)OCO4)cc(OC)c1O (stereo not given) from this test.
[out] NO

[in] I would be grateful if you could indicate the recorded call for O=C(Cc1ccc(OCc2cccc(Cl)c2)cc1)NO .
[out] NO

[in] What classification did c1ccc(Cc2cc(-c3ccccc3)[nH]n2)cc1 end up with in this test?
[out] NO

[in] Per the records of this test, what outcome belongs to C(=N\N=C1NCCN1)/c1ccc2ccccc2c1 ?
[out] NO
